# protocol.text: Study HT 02-121: L1-79 plasma concentrations (pharmacokinetics)
# Format: in vivo
# conditions: male, human, open-label 200 mg TID, read-out: plasma concentration at 1-hour post-dose on Day 1
endpoint: concentration at 1 h

Would you mind telling me what concentration at 1 h value was observed for CC(N)(Cc1ccc(O)cc1)C(=O)O (racemic) [L1-79, α-methyl-DL-tyrosine] ?
23 to 1680 ng/mL
